Values from patent US20170296650A1

target: T1, hCMV gH + gL + UL128 + UL130 + UL131A (5-member complex; HEK293T co-transfectant) (hCMV, UniProt P12824 24-743; P16832 31-278; P16837 1-171; P16772 1-214); experiment: cell competition; competitor 1F11-biotin
T1 construct: whole, on cells; in the functional rows it stands for the complex on virions or transduced cells of the strain or isolate named in the readout; also called gH/gL/UL128-131A complex; pentameric complex
Measure: Inhibition of binding (%)

{"columns": ["Binder", "Unit symbol", "Recorded value"],
 "data": [
  ["15D8 (antibody, V domains shown, human IgG; also called 15D8-biotin) VH: EVQLVQSGAEVKKPGESLKISCQASGYSFTNYWIAWVRQMPGKGLEWMGIIYPGDSDIKYSPSFRGQVTISADKSISNAFLQWRSLRASDTAMYYCARHAIRGDGFDYWGQGTLVTVSS VL: SYELTQPPSVSVSPGQTATITCSGDKLGEKYACWYQQKPGQSPVLVMYQDTKRPSGIPERFSGSNSGNTATLTISGTRAMDEADYYCQAWDTNTVIFGGGTKLTVL", "%", 0],
  ["8L13 (antibody, V domains shown, human IgG) VH: QVQLLESGGGVVQPGRSLRLSCAASGFTFSNYGMHWVRQAPGKGLEWVAVIWNDGSKKYYAESVKGRFTISRDNSKNTVYLQMNSLRAEDTAVYYCARDEGVQMVFAMPDYGMDVWGQGTTVTVSS VL: SYELTQPPSVSVSPGQTASITCSGDKLGDKFACWYQQRPGQSPILVIYQDSKRPSGIPERFSGSNSGNTATLTIRGTQAMDEADYYCQAWDSSTAHYVFGTGTKVTVL", "%", 100],
  ["8J16 (antibody, V domains shown, human IgG; also called 8J16-biotin) VH: QVQLQESGPGLVKPSETLSLTCSVSGGFTSSYYWSWIRQAPGKGLEWIGYVYYGESTDYNPSLKSRATISIDTSKNQFSLKLSSVTAADTAVYYCAREVDKRGFDYWGQGALVTVSS VL: EIVLTQSPGTLSLSPGERATLSCRASQSVSGGYLAWYQQEPGQAPRLVIYGASSRATGIPDRFSASGSGTDFTLTITRLEPEDFAVYYCQQYGRTPLTFGGGTKVEIK", "%", 0]
]}
